test system: desheathed ferret vagus nerves (C fibers); test: In vitro recording of electrically stimulated compound action potentials from desheathed ferret vagus nerves (depression of action potential); assay type: cell-based; conditions: control (sodium Lockes) buffer vehicle; read-out: ED50 (the source's name)
measurement label: pIC50
The value called pIC50 is obtained by taking minus log10 of the concentration in mol/L.

CCN(CC)CCOC(=O)c1ccc(N)cc1; 3.27

Data request: Please report pIC50 for the following molecule: Cc1cccc(C)c1NC(=O)C1CCCCN1C (centres unmarked) [mepivacaine]
Data returned: 3.38
